Listed here: items and their measured Liver lipid levels PL.
System: serum and liver lipid levels in rats
protocolDetails: Serum and liver lipid levels and relative liver weight in rats (25 mg/kg, 10 days)
Format: in vivo, male Wistar rats
experimentalSetup: Table 4; 25 mg/kg p.o. 10 days; Mean ± S.E. (n = 7)
observationType: Liver lipid levels PL (mg/g liver)

[[record]]
molecule = "O=C(OCc1ccc(OCCCc2ccc(Cl)cc2)cc1)c1cccnc1"
observationtype = "Liver lipid levels PL"
unittag = "mg/g liver"
value = 40.3

[[record]]
molecule = "O=C(OCc1ccc(OCc2ccc(Cl)cc2)cc1)c1cccnc1 [KCD-232, 4-(4-chlorobenzyloxy)benzyl nicotinate, reference compound]"
observationtype = "Liver lipid levels PL"
unittag = "mg/g liver"
value = 40.2

[[record]]
molecule = "O=C(OCCCCCCc1ccc(OCc2ccc(Cl)cc2)cc1)c1cccnc1"
observationtype = "Liver lipid levels PL"
unittag = "mg/g liver"
value = 38.8

[[record]]
molecule = "O=C(OCc1ccc(OCCCCCCc2ccc(Cl)cc2)cc1)c1cccnc1"
observationtype = "Liver lipid levels PL"
unittag = "mg/g liver"
value = 38.9

[[record]]
molecule = "O=C(OCCCc1ccc(OCc2ccc(Cl)cc2)cc1)c1cccnc1"
observationtype = "Liver lipid levels PL"
unittag = "mg/g liver"
value = 38.2


====

Test system: serum and liver lipid levels in rats
protocolDetails: Serum and liver lipid levels and relative liver weight in rats (100 mg/kg, 10 days)
Assay type: in vivo, Male rats of the Wistar strain
experimentalSetup: Table 2; 100 mg/kg p.o. 10 days; Mean ± S.E. (n = 9)
observationType: Relative liver weight (g/100 g b.w.)

[[record]]
molecule = "O=C(OCCc1ccc(OCCc2ccc(Cl)cc2)cc1)c1cccnc1 [n1=2, n2=2]"
observationtype = "Relative liver weight"
value = 3.97

[[record]]
molecule = "O=C(OCCc1ccc(OCc2ccc(Cl)cc2)cc1)c1cccnc1 [n1=1, n2=2]"
observationtype = "Relative liver weight"
value = 4.10

[[record]]
molecule = "O=C(OCCCCc1ccc(OCCCCc2ccc(Cl)cc2)cc1)c1cccnc1 [n1=4, n2=4]"
observationtype = "Relative liver weight"
value = 3.90

[[record]]
molecule = "O=C(OCCCCc1ccc(OCc2ccc(Cl)cc2)cc1)c1cccnc1 [n1=1, n2=4]"
observationtype = "Relative liver weight"
value = 4.44

[[record]]
molecule = "O=C(OCc1ccc(OCCCCc2ccc(Cl)cc2)cc1)c1cccnc1 [n1=4, n2=1]"
observationtype = "Relative liver weight"
value = 4.04

[[record]]
molecule = "O=C(OCc1ccc(OCCCc2ccc(Cl)cc2)cc1)c1cccnc1 [n1=3, n2=1]"
observationtype = "Relative liver weight"
value = 3.89

[[record]]
molecule = "O=C(OCc1ccc(OCc2ccc(Cl)cc2)cc1)c1cccnc1 [KCD-232, 4-(4-chlorobenzyloxy)benzyl nicotinate, reference compound]"
observationtype = "Relative liver weight"
value = 4.05

[[record]]
molecule = "O=C(OCc1ccc(OCCCCCCc2ccc(Cl)cc2)cc1)c1cccnc1 [n1=6, n2=1]"
observationtype = "Relative liver weight"
value = 4.17

[[record]]
molecule = "O=C(OCc1ccc(OCCc2ccc(Cl)cc2)cc1)c1cccnc1 [n1=2, n2=1]"
observationtype = "Relative liver weight"
value = 3.98


====

Test system: serum and liver lipid levels in normal rats
protocolDetails: Effects on relative liver weight, serum and liver lipid levels in normal rats (100 mg/kg, 7 days)
Type: in vivo, Male Wistar strain rats
experimentalSetup: Table 1; 100 mg/kg p.o. 7 days; fasted overnight; mean ± S.E. (n = 6)
observationType: Liver lipid levels Ch (mg/g liver)

[[record]]
compound = "O=C(OCc1ccc(OCCc2ccc(Cl)cc2)cc1)c1cccnc1"
value = 3.78

[[record]]
compound = "O=C(OCc1ccc(OCc2ccc(Cl)cc2)cc1)c1cccnc1 [KCD-232, 4-(4-chlorobenzyloxy)benzyl nicotinate, reference compound]"
value = 3.88

[[record]]
compound = "O=C(OCc1ccc(OCCCc2ccc(Cl)cc2)cc1)c1cccnc1"
value = 3.57

[[record]]
compound = "O=C(OCc1ccc(OCCCCc2ccc(Cl)cc2)cc1)c1cccnc1"
value = 3.43


====

System: serum and liver lipid levels in normal rats
protocolDetails: Effects on relative liver weight, serum and liver lipid levels in normal rats (100 mg/kg, 7 days)
Type: in vivo, Male Wistar strain rats
experimentalSetup: Table 1; 100 mg/kg p.o. 7 days; fasted overnight; mean ± S.E. (n = 6)
Listed here: items and their measured Serum lipid levels PL.
observationType: Serum lipid levels PL (mg/dL)

[[record]]
molecule = "O=C(OCc1ccc(OCCCCc2ccc(Cl)cc2)cc1)c1cccnc1 [n1=4, n2=1]"
systemundertest = "serum and liver lipid levels in normal rats"
observationtype = "Serum lipid levels PL"
value = 60.4

[[record]]
molecule = "O=C(OCc1ccc(OCCCc2ccc(Cl)cc2)cc1)c1cccnc1 [n1=3, n2=1]"
systemundertest = "serum and liver lipid levels in normal rats"
observationtype = "Serum lipid levels PL"
value = 64.4

[[record]]
molecule = "O=C(OCc1ccc(OCc2ccc(Cl)cc2)cc1)c1cccnc1 [KCD-232, 4-(4-chlorobenzyloxy)benzyl nicotinate, reference compound]"
systemundertest = "serum and liver lipid levels in normal rats"
observationtype = "Serum lipid levels PL"
value = 77.7

[[record]]
molecule = "O=C(OCc1ccc(OCCc2ccc(Cl)cc2)cc1)c1cccnc1 [n1=2, n2=1]"
systemundertest = "serum and liver lipid levels in normal rats"
observationtype = "Serum lipid levels PL"
value = 69


====

Test system: serum and liver lipid levels in normal rats
protocolDetails: Effects on relative liver weight, serum and liver lipid levels in normal rats (100 mg/kg, 7 days)
Assay type: in vivo, Male Wistar strain rats
experimentalSetup: Table 1; in parentheses; Control = (100)
observationType: Serum lipid levels PL, relative to Control (100)

[[record]]
compound = "O=C(OCc1ccc(OCc2ccc(Cl)cc2)cc1)c1cccnc1 [KCD-232, 4-(4-chlorobenzyloxy)benzyl nicotinate, reference compound]"
value = 76

[[record]]
compound = "O=C(OCc1ccc(OCCCCc2ccc(Cl)cc2)cc1)c1cccnc1"
value = 59

[[record]]
compound = "O=C(OCc1ccc(OCCCc2ccc(Cl)cc2)cc1)c1cccnc1"
value = 63

[[record]]
compound = "O=C(OCc1ccc(OCCc2ccc(Cl)cc2)cc1)c1cccnc1"
value = 68


====

Tested on: serum and liver lipid levels in normal rats
protocolDetails: Effects on relative liver weight, serum and liver lipid levels in normal rats (100 mg/kg, 7 days)
Type: in vivo, Male Wistar strain rats
experimentalSetup: Table 1; in parentheses; Control = (100)
Listed here: items and their measured Relative liver weight, relative to Control (100).
observationType: Relative liver weight, relative to Control (100)

[[record]]
compound = "O=C(OCc1ccc(OCCCCc2ccc(Cl)cc2)cc1)c1cccnc1"
value = 102

[[record]]
compound = "O=C(OCc1ccc(OCCCc2ccc(Cl)cc2)cc1)c1cccnc1"
value = 104

[[record]]
compound = "O=C(OCc1ccc(OCc2ccc(Cl)cc2)cc1)c1cccnc1 [KCD-232, 4-(4-chlorobenzyloxy)benzyl nicotinate, reference compound]"
value = 104

[[record]]
compound = "O=C(OCc1ccc(OCCc2ccc(Cl)cc2)cc1)c1cccnc1"
value = 103


====

Listed here: items and their measured Liver lipid levels TG.
System: serum and liver lipid levels in rats
protocolDetails: Serum and liver lipid levels and relative liver weight in rats (25 mg/kg, 10 days)
Format: in vivo, male Wistar rats
experimentalSetup: Table 4; 25 mg/kg p.o. 10 days; Mean ± S.E. (n = 7)
observationType: Liver lipid levels TG (mg/g liver)

[[record]]
compound = "O=C(OCCCc1ccc(OCc2ccc(Cl)cc2)cc1)c1cccnc1"
value = 3.80

[[record]]
compound = "O=C(OCc1ccc(OCc2ccc(Cl)cc2)cc1)c1cccnc1 [KCD-232, 4-(4-chlorobenzyloxy)benzyl nicotinate, reference compound]"
value = 4.36

[[record]]
compound = "O=C(OCc1ccc(OCCCc2ccc(Cl)cc2)cc1)c1cccnc1"
value = 3.97

[[record]]
compound = "O=C(OCc1ccc(OCCCCCCc2ccc(Cl)cc2)cc1)c1cccnc1"
value = 3.03

[[record]]
compound = "O=C(OCCCCCCc1ccc(OCc2ccc(Cl)cc2)cc1)c1cccnc1"
value = 5.48


====

Tested on: serum and liver lipid levels in rats
protocolDetails: Serum and liver lipid levels and relative liver weight in rats (100 mg/kg, 10 days)
Assay type: in vivo, Male rats of the Wistar strain
experimentalSetup: Table 3; 100 mg/kg p.o. 10 days; Mean ± S.E. (n = 9)
observationType: Relative liver weight (g/100 g b.w.)

[[record]]
compound = "O=C(OCCc1ccc(OCc2ccc(Cl)cc2)cc1)c1cccnc1 [n1=1, n2=2]"
value = 3.80

[[record]]
compound = "O=C(OCCCCc1ccc(OCc2ccc(Cl)cc2)cc1)c1cccnc1 [n1=1, n2=4]"
value = 3.91

[[record]]
compound = "O=C(OCCCCCCc1ccc(OCc2ccc(Cl)cc2)cc1)c1cccnc1 [n1=1, n2=6]"
value = 3.72

[[record]]
compound = "O=C(OCCCCCCc1ccc(OCCCCCCc2ccc(Cl)cc2)cc1)c1cccnc1 [n1=6, n2=6]"
value = 3.84

[[record]]
compound = "O=C(OCCCc1ccc(OCc2ccc(Cl)cc2)cc1)c1cccnc1 [n1=1, n2=3]"
value = 3.70

[[record]]
compound = "O=C(OCCc1ccc(OCCCCc2ccc(Cl)cc2)cc1)c1cccnc1 [n1=4, n2=2]"
value = 4.03

[[record]]
compound = "O=C(OCc1ccc(OCc2ccc(Cl)cc2)cc1)c1cccnc1 [KCD-232, 4-(4-chlorobenzyloxy)benzyl nicotinate, reference compound]"
value = 3.71


This collection of values is drawn from patent US4556715A.
